# tested system: T1, cyBCMA (cynomolgus, UniProt A0A2K5UD97 1-53)
# T1 construct: Soluble analyte in SPR; construct not described; also called cyno BCMA
# T1 sequence (A0A2K5UD97 entry or part of it): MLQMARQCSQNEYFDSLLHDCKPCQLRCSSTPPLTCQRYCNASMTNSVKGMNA
# method description: SPR, immobilised IgG, 37° C
Criterion: T½ strictly under 2 min. Met: Fulfilled. Not met: Not fulfilled.

- binder: "L3.PY/L1.AH/H3.AE (antibody, V domains shown, IgG in the assay) VH: EVQLLESGGGLVQPGGSLRLSCAASGFTFGSYAMTWVRQAPGKGLEWVSAISGSGGNTFYADSVKGRFTISRDNSKNTLYLQMNSLRAEDTAVYYCARVSPIAAEMDYWGQGTLVTVSS VL: EIVLTQSPGTLSLSPGERATLSCRASQSVSAHYLAWYQQKPGQAPRLLIYGASSRATGIPDRFSGSGSGTDFTLTISRLEPEDFAVYYCQHYPYPPSFTFGQGTKVEIK"
  class: "Not fulfilled"
- binder: "L3.PY/H2.YQ (antibody, V domains shown, IgG in the assay) VH: EVQLLESGGGLVQPGGSLRLSCAASGFTFGSYAMTWVRQAPGKGLEWVSAISYQGGNTFYADSVKGRFTISRDNSKNTLYLQMNSLRAEDTAVYYCARVSPIASGMDYWGQGTLVTVSS VL: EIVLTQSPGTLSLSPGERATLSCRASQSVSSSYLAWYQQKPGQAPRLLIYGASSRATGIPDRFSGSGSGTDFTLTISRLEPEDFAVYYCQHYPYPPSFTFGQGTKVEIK"
  class: "Fulfilled"
- binder: "L3.PY/H3.AE (antibody, V domains shown, IgG in the assay) VH: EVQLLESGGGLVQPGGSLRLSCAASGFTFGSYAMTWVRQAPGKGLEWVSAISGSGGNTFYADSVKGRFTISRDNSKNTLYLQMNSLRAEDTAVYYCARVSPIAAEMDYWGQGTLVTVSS VL: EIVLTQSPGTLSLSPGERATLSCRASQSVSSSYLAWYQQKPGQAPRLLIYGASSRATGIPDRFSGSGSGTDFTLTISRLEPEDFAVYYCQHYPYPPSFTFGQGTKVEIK"
  class: "Not fulfilled"
- binder: "L3.PY/L1.AH/H2.QR (antibody, V domains shown, IgG in the assay) VH: EVQLLESGGGLVQPGGSLRLSCAASGFTFGSYAMTWVRQAPGKGLEWVSAISGSGGNTFYADQRKGRFTISRDNSKNTLYLQMNSLRAEDTAVYYCARVSPIASGMDYWGQGTLVTVSS VL: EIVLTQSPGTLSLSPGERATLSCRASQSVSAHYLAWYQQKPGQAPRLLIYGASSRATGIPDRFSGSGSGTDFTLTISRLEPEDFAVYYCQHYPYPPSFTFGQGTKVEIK"
  class: "Not fulfilled"
- binder: "L3.PY/H2.DY (antibody, V domains shown, IgG in the assay) VH: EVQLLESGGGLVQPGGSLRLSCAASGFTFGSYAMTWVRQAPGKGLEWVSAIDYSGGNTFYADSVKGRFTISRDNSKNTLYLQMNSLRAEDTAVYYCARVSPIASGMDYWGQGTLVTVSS VL: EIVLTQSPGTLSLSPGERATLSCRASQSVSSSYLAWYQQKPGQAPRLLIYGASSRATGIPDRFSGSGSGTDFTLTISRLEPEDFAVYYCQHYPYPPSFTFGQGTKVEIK"
  class: "Fulfilled"
